Answer each item with its documented yeast surface expression.
B1: scFv; the commonest letter at each place (parent)
chain 1: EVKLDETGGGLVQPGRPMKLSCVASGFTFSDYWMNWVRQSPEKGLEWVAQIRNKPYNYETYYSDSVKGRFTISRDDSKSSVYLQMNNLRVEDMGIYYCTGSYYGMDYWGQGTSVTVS
chain 2: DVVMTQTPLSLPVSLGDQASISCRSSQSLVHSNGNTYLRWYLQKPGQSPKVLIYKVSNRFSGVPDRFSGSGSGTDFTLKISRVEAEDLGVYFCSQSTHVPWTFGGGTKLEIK

Variants of: B1
Test method notes: yeast surface expression (ratio to wild type); higher = more expressed
Condition: format: scFv 4-4-20, heavy + light
Answers are plain numbers.

Observe how each entry below is paired with its result.
{"columns": ["Mutant designation", "yeast surface expression"],
 "data": [
  ["chain 1 G100W Y107D G109L", 0.227],
  ["chain 1 D31E W36H", 0.658]
]}

Answer for every listed entry: what is its yeast surface expression? The entries follow.
1. chain 1 Y107S
2. chain 1 G100A Y102R G109C
3. chain 1 Y32G M34N
4. chain 1 Y102N Y103C
5. chain 1 M105H Y107G
6. chain 1 F29I N35A
7. chain 1 M105G D106R

Data returned:
[0.77, 0.266, 0.613, 0.692, 0.412, 0.817, 0.434]

Answer for every listed entry: what is its yeast surface expression? The entries follow.
1. chain 1 M105N G109C
2. chain 1 S101R
3. chain 1 S30M D31F
4. chain 1 G104N G109Y
5. chain 1 G104F W108F
6. chain 1 S30I M34P
7. chain 1 D106H W108I

Data returned:
1. 0.123
2. 0.731
3. 0.611
4. 0.305
5. 0.387
6. 0.36
7. 0.67

Answer for every listed entry: what is its yeast surface expression? The entries follow.
1. chain 1 D31L W36H
2. chain 1 S101F W108F
3. chain 1 G109F
4. chain 1 F29S N35Y
5. chain 1 Y102G G104H

Data returned:
1. 0.82
2. 0.199
3. 0.305
4. 1.05
5. 1.06

Answer for every listed entry: what is its yeast surface expression? The entries follow.
1. chain 1 D31K W33R V37C
2. chain 1 Y32H N35D
3. chain 1 Y102V W108G
4. chain 1 Y103M G109Y

Data returned:
1. 0.501
2. 0.772
3. 0.298
4. 0.265

Answer for every listed entry: what is its yeast surface expression? The entries follow.
1. chain 1 W36K V37N
2. chain 1 T28Y N35Y
3. chain 1 T28F V37C
4. chain 1 G104S Y107S
5. chain 1 Y107L W108D
6. chain 1 W36K V37H
7. chain 1 D31S Y32G

Data returned:
1: 0.168; 2: 0.86; 3: 0.588; 4: 0.437; 5: 0.326; 6: 0.773; 7: 0.78

Answer for every listed entry: what is its yeast surface expression? The entries follow.
1. chain 1 W33E N35C
2. chain 1 Y103E W108N
3. chain 1 S101C Y107C
4. chain 1 G109R
5. chain 1 S101I
6. chain 1 S30H M34C
7. chain 1 W33A N35S W36M
8. chain 1 S101H Y103L

Data returned:
1. 0.797
2. 0.446
3. 0.493
4. 0.297
5. 0.521
6. 0.623
7. 0.823
8. 0.78

Answer for every listed entry: what is its yeast surface expression? The entries follow.
1. chain 1 D31G N35H
2. chain 1 V37P

Data returned:
0.64
0.676

Answer for every listed entry: what is its yeast surface expression? The entries follow.
1. chain 1 F29I W33M V37P
2. chain 1 Y102S G109L
3. chain 1 W33G M34I
4. chain 1 Y32G M34E
5. chain 1 S30Y D31A N35A
6. chain 1 T28P Y32R
7. chain 1 S101D W108N

Data returned:
[0.444, 0.228, 0.433, 0.194, 0.451, 1.09, 0.445]
